Target: T1, FZD4 cysteine-rich domain (CRD), MYC-tagged and GPI-anchored on CHO cells (human, UniProt Q9ULV1 42-167, GPI anchor)
T1 construct: also called FZD4 CRD; CHO-myc-FZDGPI; not shown: MYC tag and GPI anchor signal
T1 sequence: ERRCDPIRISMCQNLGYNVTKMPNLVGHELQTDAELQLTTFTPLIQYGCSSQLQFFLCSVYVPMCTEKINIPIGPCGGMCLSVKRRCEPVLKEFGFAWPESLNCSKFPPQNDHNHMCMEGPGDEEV
Assay: immunofluorescence, CHO-CRD cells
Recorded metric: binding result

Fab-2913 (Fab, V domains shown, Fab; also called Fv-2913) VH: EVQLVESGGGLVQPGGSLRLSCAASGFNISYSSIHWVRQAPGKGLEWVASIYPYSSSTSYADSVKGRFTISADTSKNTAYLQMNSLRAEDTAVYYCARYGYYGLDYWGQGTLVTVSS VL: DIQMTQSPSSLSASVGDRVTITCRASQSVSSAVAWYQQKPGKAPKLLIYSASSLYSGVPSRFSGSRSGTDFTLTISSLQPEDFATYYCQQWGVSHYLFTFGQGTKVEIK : no binding
Fab-2915 (Fab, V domains shown, Fab; also called Fv-2915) VH: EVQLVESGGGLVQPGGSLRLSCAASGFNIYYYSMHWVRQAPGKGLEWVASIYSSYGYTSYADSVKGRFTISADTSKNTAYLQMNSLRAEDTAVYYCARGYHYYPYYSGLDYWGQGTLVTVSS VL: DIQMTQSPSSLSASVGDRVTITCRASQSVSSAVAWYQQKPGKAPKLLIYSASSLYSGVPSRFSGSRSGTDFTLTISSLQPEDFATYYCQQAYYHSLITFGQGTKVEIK : no binding
